assay: small-molecule microarray binders of probe aLefty2, primary screen, biochemical, biotinylated probe, 635/667 nm fluorescence (AID 1094); settings: higher = more signal;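 note: score merges spot fluorescence near 667 nm with spot signal-to-noise ratio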
Use Criterion met when the recorded composite z-score is no lower than 0.01; use Criterion not met when it is lower.

Problem: Hello, I need to know if `COc1ccc(CCN2C(=O)[C@@]3(Cc4ccccc42)c2ccccc2C(=O)N(Cc2ccccc2OC)[C@H]3c2ccc(CO)cc2)cc1` has measured composite z-score not below 0.01. Thanks!
Solution: Criterion met

Problem: Check `CC1=C([C@H](O)CCc2ccccc2)[C@H](CO)[C@@H]2C(=O)N(C)C(=O)[C@@H]2C1` too.
Solution: Criterion not met

Problem: Would you kindly repeat that for O=C1C2C=CC(C(O)c3ccc(F)cc3)N(n3cnnc3)C2C(=O)N1Cc1ccccc1 (stereo not drawn) ?
Solution: Criterion met

Problem: Try this compound too: `COc1ccc(CCNC(=O)[C@@H]2c3ccccc3C(=O)N(Cc3cc(C(F)(F)F)cc(C(F)(F)F)c3)[C@H]2c2ccc(CO)cc2)cc1`
Solution: Criterion not met

Problem: Item: `COCCCNC(=O)[C@@]1(Cc2ccccc2N=[N+]=[N-])N=C(c2ccc(OCCCO)cc2)O[C@H]1c1ccccc1`
Solution: Criterion met

Problem: Same question for `CCCNC(=O)[C@@H]1c2ccccc2C(=O)N(C(C)C)[C@H]1c1ccc(CO)cc1` please.
Solution: Criterion not met

Problem: What would you report for `COc1ccc(NC(=O)O[C@H]2[C@H](OC(=O)Nc3ccccc3)[C@@H](OC(=O)Nc3ccccc3)[C@@H](OC)O[C@@H]2CO)cc1` ?
Solution: Criterion not met

Problem: Now the compound `C=C[C@@H](COC(C)=O)N(C(=O)OC(C)(C)C)S(=O)(=O)c1ccc(Br)cc1`
Solution: Criterion met

----------
biological target: Left-right determination factor 2 (Homo sapiens); assay: LEFTY2 binders on small-molecule microarrays, primary screen, biochemical, small-molecule microarray, 635 nm fluorescence scan (AID 1110); details: LEFTY2 binding, higher = more signal
Categories are assigned from the measured composite z-score using these intervals: category 1: < -0.1; category 2: ≥ -0.1 and < 0.4; category 3: ≥ 0.4

Illustrative cases are given below, each with its answer.
INSERT INTO measurements (molecule, class_assignment) VALUES
  ('CCCC[C@@H](O)C1=C(COc2ccccc2)C[C@H]2C(=O)N(C)C(=O)[C@H]2[C@H]1CO', 'category 1'),
  ('C=CCC(OC(C)=O)[C@@H]1[C@@H](N(Cc2cc3ccccc3o2)C(=O)c2ccc(-c3ccccc3)cc2)c2cc(OCCCO)ccc2N1C(=O)c1ccc2ccccc2c1 (stereo partly drawn)', 'category 2'),
  ('C=CCC(OC(C)=O)[C@@H]1[C@@H](N(Cc2cccc3ccccc23)C(=O)Cc2ccc(OC)cc2)c2cc(OCCCO)ccc2N1C(=O)c1ccc2ccccc2n1 (stereo partly drawn)', 'category 2');

Problem: Exercise: read the entry `COC(=O)CCCCCCC(=O)Nc1ccc(NC(=O)CCCC[P+](c2ccccc2)(c2ccccc2)c2ccccc2)cc1` and state which class it falls under.
Solution: category 3

Problem: Now give it for CN1C(=O)C2C=CC(C(O)c3cccc(O)c3)N(Nc3ccccc3)C2C1=O (stereo not drawn) too.
Solution: category 2

Problem: Also, `COC(=O)[C@@]1(Cc2ccc(OC)cc2)[C@H]2c3cc(C(=O)N4CCCC4)n(Cc4c(-c5ccccc5)noc4C)c3C[C@H]2CN1C(=O)c1ccccc1` please.
Solution: category 1

Problem: Query `COC(=O)[C@@]1(Cc2ccccc2N=[N+]=[N-])N=C(c2ccc(OCCCO)cc2)O[C@H]1c1ccccc1N=[N+]=[N-]` next
Solution: category 1

Problem: What do you have for CC=CC(O)C1C=CC2C(=O)N(c3ccccc3)C(=O)C2N1Nc1ccccc1F (stereo not drawn) ?
Solution: category 2

Problem: Quick one: O=C1C2C=CC(C(O)c3ccc(F)cc3)N(n3cnnc3)C2C(=O)N1Cc1ccccc1 (stereo not drawn)
Solution: category 1

Problem: What do you have for `O=C(CS)NCCCCCCNC(=O)[C@H]1C[C@H]2C(=O)N[C@@H](Cc3ccccc3)C(=O)N2[C@H]1c1ccc(O)cc1` ?
Solution: category 3

Problem: What do you get for `CCCC[C@@H]1C[C@H]1[C@@H](NC(=O)c1cccs1)c1ccc(C(F)(F)F)cc1` ?
Solution: category 1

Problem: And what about the molecule `Cc1ccc(S[C@]2(C(=O)O)CC(=O)N(C3Cc4ccccc4C3)[C@@H]2c2ccc(CO)cc2)cc1` ?
Solution: category 1

Problem: Then this molecule: CN1C(=O)C2C=CC(C(O)c3cccc4ccccc34)N(N3CCCCC3)C2C1=O (stereo not drawn)
Solution: category 2

Problem: What about this molecule? `COCCOC(=O)N1C(=O)[C@@]2(c3cc(C#CCC(C(=O)OC)C(=O)OC)ccc31)[C@H](C(=O)N1CCc3cc(OC)c(OC)cc3C1)[C@H]1C(=O)O[C@H](c3ccccc3)[C@H](c3ccccc3)N1[C@@H]2c1ccc(OCCO)cc1`
Solution: category 3

Problem: Now consider `O=C1C=C(c2ccccc2)C(=O)c2ccc([C@H]3Oc4ccccc4S(=O)(=O)N4CCC[C@@H]34)cc21` and answer again.
Solution: category 1

Problem: Next entry: `COCCOC(=O)N1C(=O)[C@@]2(c3cc(C#Cc4ccc(OC)cc4)ccc31)[C@H](C(=O)Nc1nc3ccccc3s1)[C@H]1C(=O)O[C@H](c3ccccc3)[C@H](c3ccccc3)N1[C@@H]2c1ccc(OCCO)cc1`
Solution: category 3

Problem: Also `CO[C@H]1O[C@H](CO)[C@@H](OC(=O)Nc2ccc3c(c2)OCO3)[C@H](OC(=O)c2cc3ccccc3[nH]2)[C@H]1OC(=O)c1cc2ccccc2[nH]1` , if possible.
Solution: category 2

Problem: // repeat for `COc1ccc(-c2nc(-c3ccccc3)c3c(c2C)CO[Si]3(C(C)C)C(C)C)cn1` and report
Solution: category 2

Problem: What do you get for `COCCOC(=O)N1C(=O)[C@@]2(c3cc(C#CCCO)ccc31)[C@H](C(=O)Nc1nc3ccccc3s1)[C@H]1C(=O)O[C@H](c3ccccc3)[C@H](c3ccccc3)N1[C@@H]2c1ccccc1OCCO` ?
Solution: category 3

----------
target: Torsin-1A (Homo sapiens) (UniProt O14656); test: small-molecule binders of mutant TOR1A in lysate, primary screen, cell lysate, small-molecule microarray, COS7 lysate, 635/667 nm fluorescence (AID 1150); conditions: COS7 hTOR1A mutant lysate, 635 nm fluorescence, higher = more signal;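 note: score pools 667 nm emission and signal to noise measuring lysate protein binding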
Sequence (O14656 whole entry, looked up): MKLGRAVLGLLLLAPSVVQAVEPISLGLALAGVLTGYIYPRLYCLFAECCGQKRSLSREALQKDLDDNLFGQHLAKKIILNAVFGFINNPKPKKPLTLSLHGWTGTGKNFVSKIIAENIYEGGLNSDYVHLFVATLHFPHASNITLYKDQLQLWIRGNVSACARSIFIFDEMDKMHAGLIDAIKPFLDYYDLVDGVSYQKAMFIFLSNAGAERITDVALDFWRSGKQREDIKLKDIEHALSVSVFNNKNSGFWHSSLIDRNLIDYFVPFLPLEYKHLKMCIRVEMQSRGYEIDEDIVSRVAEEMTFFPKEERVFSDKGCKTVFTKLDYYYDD
Overview of reported composite z-score across a group of molecules:
// print number alone

INSERT INTO measurements (molecule, readout_label, endpoint_result) VALUES
  ('COCCCNC(=O)[C@@]1(Cc2ccccc2CN=[N+]=[N-])N=C(c2ccc(OCCCO)cc2)O[C@H]1c1ccccc1', 'composite z-score', 1.26),
  ('CC(C)C[C@@H]1NC(=O)[C@@H]2C[C@H](C(=O)NCCCCN(C)C)[C@H](c3cccc(OCCO)c3)N2C1=O', 'composite z-score', 0.718);

Please examine the following record next.
Problem: Item under review: N#Cc1ccc(C(O)C2C=CC3C(=O)N(c4ccccc4)C(=O)C3N2Nc2ccccc2)cc1 (stereo not drawn) . Reported composite z-score?
Solution: 0.227

----------
target: NADPH oxidase 2 (Homo sapiens) (UniProt P04839); test: NOX2-dependent H2O2 signal modulators, primary screen, NOX inhibitor project, cell-based, HEK293-NOX2, PMA-stimulated, Amplex Red fluorescence (AID 1159); details: 45 min, higher = more signal, called active from +8 up or from −8 down; note: test concentration not given here
Sequence (P04839 whole entry, looked up): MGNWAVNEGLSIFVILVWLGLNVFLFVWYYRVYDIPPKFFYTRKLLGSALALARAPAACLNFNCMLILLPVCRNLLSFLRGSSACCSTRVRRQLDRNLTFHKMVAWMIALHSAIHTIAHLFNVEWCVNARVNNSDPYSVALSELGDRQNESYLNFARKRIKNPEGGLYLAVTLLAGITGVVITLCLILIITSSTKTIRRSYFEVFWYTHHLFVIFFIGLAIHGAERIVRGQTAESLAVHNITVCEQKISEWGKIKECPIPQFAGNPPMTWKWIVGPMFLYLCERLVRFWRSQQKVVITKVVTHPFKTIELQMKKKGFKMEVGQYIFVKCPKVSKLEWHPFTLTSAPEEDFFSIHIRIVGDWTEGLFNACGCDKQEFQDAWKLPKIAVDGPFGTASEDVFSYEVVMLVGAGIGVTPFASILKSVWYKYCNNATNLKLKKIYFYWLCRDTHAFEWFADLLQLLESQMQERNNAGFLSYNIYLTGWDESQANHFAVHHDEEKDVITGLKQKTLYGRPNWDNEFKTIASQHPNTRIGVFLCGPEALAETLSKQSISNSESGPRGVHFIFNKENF
Quick reference for z-score among some compounds
Note: the reply should be a number with no unit written.

INSERT INTO assay_data (compound, endpoint_result) VALUES
  ('Cc1ccc(S[C@]2(C(=O)NCC(F)(F)F)CC(=O)N(C3CCCCC3)[C@@H]2c2ccc(CO)cc2I)cc1', 1.04),
  ('CC(C)C(CO)N1C(=O)[C@@H]2C3C(=O)OCCC/C=C\[C@H]3OC23C=CCN(C(C)(C)C)C(=O)[C@@H]13 (stereo not given in full)', 1.57),
  ('CC=CC(O)C1C=CC2C(=O)N(c3ccccc3)C(=O)C2N1Nc1ccccc1F (stereo not given)', -1.11),
  ('C[N+](C)(C)CCCCCCNC(=O)[C@H]1C[C@H]2C(=O)NCC(=O)N2[C@H]1c1ccc(O)cc1', 0.446);

Problem: Reported z-score for CCOc1cc(C(O)C2C=CC3C(=O)N(c4ccccc4)C(=O)C3N2Nc2ccc(C#N)cc2)ccc1O (stereo not given) : what is it?
Solution: -2.87

Problem: Entry to check: `COC(=O)CCCCCCC(=O)Nc1ccc(NC(=O)CCCC[P+](c2ccccc2)(c2ccccc2)c2ccccc2)cc1`
Solution: -0.765

Problem: Same thing, different compound: C[C@H]1NC(=O)[C@@]23C(=O)N[C@@H](Cc4ccccc4)C2[C@H](C)[C@@]2(C)O[C@H]2C3/C=C/C/C=C\CNC(=O)[C@H](Cc2ccccc2)NC1=O (stereo not given in full)
Solution: 1.63
